Consider the following compounds and their measured inhibition at 0.1 µM readings.
Biological target: human FLT-3 (Arg571-Ser993) (Homo sapiens, UniProt P36888)
Construct: human FLT-3 (Arg571-Ser993); GST (N); purchased Cell Signaling Technology; host or cells: baculovirus expression system
Sequence (P36888 571-993): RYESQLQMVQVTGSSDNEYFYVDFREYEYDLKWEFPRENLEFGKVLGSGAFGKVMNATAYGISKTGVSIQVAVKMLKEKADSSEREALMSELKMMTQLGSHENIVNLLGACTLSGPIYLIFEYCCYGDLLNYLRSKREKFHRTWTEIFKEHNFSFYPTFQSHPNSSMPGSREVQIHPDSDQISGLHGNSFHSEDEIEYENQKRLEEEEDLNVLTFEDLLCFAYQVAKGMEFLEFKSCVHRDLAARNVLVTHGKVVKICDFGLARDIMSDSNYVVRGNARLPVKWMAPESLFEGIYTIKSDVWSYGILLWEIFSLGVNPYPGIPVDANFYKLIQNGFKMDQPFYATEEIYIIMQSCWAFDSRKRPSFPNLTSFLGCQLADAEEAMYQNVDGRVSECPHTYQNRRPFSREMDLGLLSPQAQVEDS
Assay: FLT-3 kinase assay (HTScan kit, DELFIA)
Type: biochemical
Settings: compound at 0.1 μM; read-out: FLT-3 0.1 μM, % of inhibition relative to control
Give a bare numeral; the unit % is implied.

compound	system_tested	inhibition at 0.1 µM (%)
Cc1cc(C=C2C(=O)Nc3ccc(S(=O)(=O)NCCCN4CCN(C)CC4)cc32)c2cccccc1-2 [Compound 82]	human FLT-3 (Arg571-Ser993) (Homo sapiens, UniProt P36888)	12.8
O=C1Nc2ccc(F)cc2/C1=C\c1cc2cccccc-2c1F [Compound 56]	human FLT-3 (Arg571-Ser993) (Homo sapiens, UniProt P36888)	12.6
COc1ccc(CN2C(=O)/C(=C/c3cc(C)c4cc(C(C)C)ccc(C)c3-4)c3ccccc32)cc1 [Compound 73]	human FLT-3 (Arg571-Ser993) (Homo sapiens, UniProt P36888)	33.9
CN(C)Cc1cc(/C=C2/C(=O)Nc3ccc(F)cc32)c2cccccc1-2 [Compound 65]	human FLT-3 (Arg571-Ser993) (Homo sapiens, UniProt P36888)	23.3
CCN(CC)CCCOc1ccccc2c(C=C3C(=O)Nc4ccc(F)cc43)cc(C)c1-2 [Compound 90]	human FLT-3 (Arg571-Ser993) (Homo sapiens, UniProt P36888)	33.9
CCc1cc(C=C2C(=O)Nc3ccc(S(=O)(=O)NCCCN4CCN(C)CC4)cc32)c2cccccc1-2 [Compound 83]	human FLT-3 (Arg571-Ser993) (Homo sapiens, UniProt P36888)	10.5

So what does the record say about inhibition at 0.1 µM for O=C1Nc2ccccc2/C1=C/c1cc2cccccc-2c1 [Compound 33] ?
50.5

So what does the record say about inhibition at 0.1 µM for Cc1cc(C=C2C(=O)Nc3ccc(C(F)(F)F)cc32)c2ccccc(OCCCN(C)C)c1-2 [Compound 100] ?
64.9

So what does the record say about inhibition at 0.1 µM for CC(C)c1cc(C=C2C(=O)Nc3ccc(F)cc32)c2cccccc1-2 [Compound 81] ?
19.1

So what does the record say about inhibition at 0.1 µM for Cc1c2cccccc-2c(C)c1/C=C1/C(=O)Nc2ccc(F)cc21 [Compound 66] ?
15.8

So what does the record say about inhibition at 0.1 µM for COc1ccc2c(c1)NC(=O)/C2=C/c1ccc2cccccc1-2 [Compound 30] ?
7.3

So what does the record say about inhibition at 0.1 µM for O=C1Nc2ccc(F)cc2/C1=C/c1c2cccccc-2oc1=O [Compound 62] ?
68.3

So what does the record say about inhibition at 0.1 µM for O=C1Nc2ccc(F)cc2/C1=C/c1ccc2cccccc1-2 [Compound 26] ?
5

So what does the record say about inhibition at 0.1 µM for Cc1cc(/C=C2/C(=O)Nc3ccc(F)cc32)c2cccccc1-2 [Compound 38] ?
40.5

This collection of values is drawn from patent US7714146B2.
